All values here come from patent US12365687B2.

target: human GABAA α1β3γ2 receptor (Homo sapiens (Human), UniProt P14867+P18507); test: Radioligand binding assay for γ2-containing GABAA subtypes, [3H]Flumazenil competition (α1β3γ2)
PROPERTY_LABEL: log10(Ki) (log10 of the value in µM)
All values: base-10 log of Ki in µM.

// solved cases for log10(Ki) follow
| MOLECULE | log10(Ki) |
| --- | --- |
| C[C@@H]1N=C(c2ncccc2F)c2c(ccc(Cl)c2Cl)-n2nc(C(=O)N3CC(O)C3)nc21 [Example 44] | 0.82 |
| C[C@@H]1N=C(c2c(F)cccc2F)c2c(ccc(Cl)c2Cl)-n2nc(C#N)nc21 [Example 53] | 0.41 |
| C[C@@H]1N=C(c2c(F)cccc2F)c2c(ccc(Cl)c2Cl)-n2nc(C(=O)N3CCS(=O)(=O)CC3)nc21 [Example 36] | -0.11 |
| C[C@@H]1N=C(c2ncccc2F)c2c(ccc(C(F)(F)F)c2Cl)-n2cc(C(=O)NCC3(O)CC3)nc21 [Example 164] | 0.93 |
| CC1CN(C(=O)c2cn3c(n2)[C@H](C)N=C(c2ncccc2F)c2c-3ccc(C(F)(F)F)c2Cl)C1 [Example 163] | 1.13 |
| [2H]C([2H])([2H])OC1CN(C(=O)c2nc3n(n2)-c2ccc(C(F)(F)F)c(Cl)c2C(c2ncccc2F)=N[C@H]3C)C1 [Example 104] | 0.80 |

q: Recorded log10(Ki) for Cc1c(C(=O)NC[C@@H](C)O)nc2n1-c1ccc(C(F)(F)F)c(Cl)c1C(c1ncccc1F)=N[C@H]2C [Example 162] , please?
a: 1.07

q: Please give the result for C[C@@H]1N=C(c2ncccc2F)c2c(ccc(C(F)(F)F)c2Cl)-n2nc(C(=O)N3CC4(CCO4)C3)nc21 [Example 119] too.
a: 1.10

q: Please give the result for C[C@@H]1N=C(c2c(F)cccc2F)c2c(ccc(Cl)c2Cl)-n2nc(C(=O)NCCO)nc21 [Example 54] too.
a: -0.24

q: Please give the result for C[C@@H]1N=C(c2ncccc2F)c2c(ccc(C(F)(F)F)c2Cl)-n2cc(C(=O)N3CC(C(F)F)C3)nc21 [Example 156] too.
a: 1.03

q: Please give the result for C[C@@H]1N=C(c2c(F)cccc2F)c2c(ccc(C(F)(F)F)c2Cl)-n2nc(C(=O)NCC#N)nc21 [Example 110] too.
a: 0.39

q: Please give the result for CCNC(=O)c1nc2n(n1)-c1ccc(Cl)c(Cl)c1C(c1c(F)cccc1F)=N[C@H]2C [Example 64] too.
a: -0.05

q: Please give the result for COC1CN(C(=O)Nc2nc3n(n2)-c2ccc(Cl)c(Cl)c2C(c2c(F)cccc2F)=N[C@H]3C)C1 [Example 60] too.
a: -0.22

q: Please give the result for Cc1c(C(=O)NCCO)nc2n1-c1ccc(C(F)(F)F)c(Cl)c1C(c1ncccc1F)=N[C@H]2C [Example 154] too.
a: 1.06

====

biological target: human GABAA α1β3γ2 receptor (Homo sapiens (Human), UniProt P14867+P18507); test: Radioligand binding assay for γ2-containing GABAA subtypes, [3H]Flumazenil competition (α1β3γ2); conditions: Ki α1β3γ2 (nM)/Ki α2β2γ1 (nM)
PROPERTY_LABEL: γ2/γ1 Selectivity Ratio
Lab note: jot the number down without any unit.

// solved cases for γ2/γ1 Selectivity Ratio follow
| SUBSTANCE_SMILES | MEASUREMENT |
| --- | --- |
| C[C@@H]1N=C(c2c(F)cccc2F)c2c(ccc(C(F)(F)F)c2Cl)-n2nc(N3CCOC3=O)nc21 | 218.2 |
| C[C@@H]1N=C(c2c(F)cccc2F)c2c(ccc(C(F)(F)F)c2Cl)-n2nc(C(=O)N3CCC3)nc21 | 213.1 |

// moving on: another record for γ2/γ1 Selectivity Ratio
q: So what γ2/γ1 Selectivity Ratio did C[C@@H]1N=C(c2c(F)cccc2F)c2c(ccc(Cl)c2Cl)-n2nc(C(=O)NC[C@@H](C)O)nc21 get with human GABAA α1β3γ2 receptor (Homo sapiens (Human), UniProt P14867+P18507)?
a: 84.8

====

target: human GABAA α2β2γ1 receptor (Homo sapiens (Human), UniProt P47869+Q8N1C3); experiment: Radioligand binding assay for γ1-containing GABAA subtypes, [3H]RO7239181 competition (α2β2γ1); details: Ki h-GABAA α2β2γ1, [3H]RO7239181 competition binding, human GABAA α2β2γ1
PROPERTY_LABEL: pKi
When answering, recall that pKi equals minus log10 of the concentration in mol/L, and write that number alone.

| SUBSTANCE_SMILES | pKi |
| --- | --- |
| C[C@@H]1N=C(c2ncccc2F)c2c(ccc(C(F)(F)F)c2Cl)-n2nc(C(=O)N3CC4(CCOC4)C3)nc21 | 7.09 |
| Cc1nc2n(n1)-c1ccc(C(F)(F)F)c(Cl)c1C(c1c(F)cccc1F)=N[C@H]2C | 8.00 |
| COC1CN(C(=O)c2nc3n(n2)-c2ccc(Cl)c(Cl)c2C(c2ncccc2F)=NC3)C1 | 8.05 |
| C[C@@H]1N=C(c2c(F)cccc2F)c2c(ccc(Cl)c2Cl)-n2cc(C(=O)N3CCC3)nc21 | 7.73 |
| C[C@@H]1N=C(c2ncccc2F)c2c(ccc(C(F)(F)F)c2Cl)-n2nc(C(=O)N3CC4(COC4)C3)nc21 | 7.21 |
| C[C@@H]1N=C(c2c(F)cccc2F)c2c(ccc(C(F)(F)F)c2Cl)-n2nc(C(=O)N3CCS(=O)(=O)CC3)nc21 | 8.02 |
| C[C@@H]1N=C(c2c(F)cccc2F)c2c(ccc(Cl)c2Cl)-n2nc(C(=O)N3CC[C@@H](O)C3)nc21 | 8.47 |
| C[C@@H]1N=C(c2c(F)cccc2F)c2c(ccc(Cl)c2Cl)-n2nc(N3CCCC3=O)nc21 | 8.35 |

// moving on: another record for pKi
q: Recorded pKi for C[C@@H]1N=C(c2ncccc2F)c2c(ccc(Br)c2Cl)-n2nc(C(=O)N3CCC3)nc21 , please?
a: 7.73

====

# LogSel per record follows
target: human GABAA α1β3γ2 receptor (Homo sapiens (Human), UniProt P14867+P18507); experiment: Radioligand binding assay for γ2-containing GABAA subtypes, [3H]Flumazenil competition (α1β3γ2); details: Table 3; Log[Ki α1β3γ2 (nM)/Ki α2β2γ1 (nM)]
Lab note: jot the number down without any unit.

| MOLECULE | TARGET_ENTITY | LogSel |
| --- | --- | --- |
| Cc1nnc2n1-c1ccc(Cl)cc1C(c1ccccc1)=NC2 [Alprazolam, reference compound] | human GABAA α1β3γ2 receptor (Homo sapiens (Human), UniProt P14867+P18507) | −2.3 |
| [2H]C([2H])([2H])N(C(=O)c1nc2n(n1)-c1ccc(Cl)c(Cl)c1C(c1c(F)cccc1F)=N[C@H]2C)C([2H])([2H])[2H] | human GABAA α1β3γ2 receptor (Homo sapiens (Human), UniProt P14867+P18507) | 1.91 |

q: Recorded LogSel for CN(C)C(=O)c1nc2n(n1)-c1ccc(Cl)c(Cl)c1C(c1c(F)cccc1F)=NC2 , please?
a: 2.25

q: Please give the result for Cc1ncc2n1-c1ccc(Cl)cc1C(c1ccccc1F)=NC2 [Midazolam, reference compound] too.
a: −2.2

q: Please give the result for Cc1nnc2n1-c1ccc(Cl)cc1C(c1ccccc1Cl)=NC2 [Triazolam, reference compound] too.
a: −1.5

====

biological target: human GABAA α2β2γ1 receptor (Homo sapiens (Human), UniProt P47869+Q8N1C3); assay: Radioligand binding assay for γ1-containing GABAA subtypes, [3H]RO7239181 competition (α2β2γ1); conditions: Ki h-GABAA α2β2γ1, [3H]RO7239181 competition binding, human GABAA α2β2γ1
# Ki per record follows
The figure you give is taken to be in nM; do not add the unit.

// solved cases for Ki follow
| SUBSTANCE_SMILES | PROPERTY_LABEL | MEASUREMENT |
| --- | --- | --- |
| C[C@H](O)CNC(=O)c1nc2n(n1)-c1ccc(C(F)(F)F)c(Cl)c1C(c1c(F)cccc1F)=N[C@H]2C | Ki | 12.1 |
| C[C@@H]1N=C(c2c(F)cccc2F)c2c(ccc(Cl)c2Cl)-n2nc(C(=O)NC3(C#N)CC3)nc21 | Ki | 4.2 |
| OCc1cn2c(n1)CN=C(c1c(F)cccc1F)c1c-2ccc(Br)c1Cl | Ki | 8.8 |

// moving on: another record for Ki
q: So what Ki did O=C(NC1COC1)c1nc2n(n1)-c1ccc(Cl)c(Cl)c1C(c1c(F)cccc1F)=NC2 get with human GABAA α2β2γ1 receptor (Homo sapiens (Human), UniProt P47869+Q8N1C3)?
a: 3.1
